Data provenance is patent US6379563B1.

// minimum biofilm eradication concentration (MBEC) lookup, one value per entry
Tested on: Pseudomonas aeruginosa (ATCC 15442) biofilms
Test: MBEC test, 24-hour biofilm, one hour biocide challenge;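 also: Peg-grown biofilms exposed to biocide, then regrowth in broth 18 h at 35 °C, turbidity by absorbance at 650 nm, above 0.100 counted as growth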
Assay type: cell-based
Settings: Pseudomonas aeruginosa, ATCC15442, 1 h, 24-hour biofilm, 1 hour contact; blends: total amount of components (1:1 ratio); read-out: MBEC, ppm (first of duplicate runs)
Response body: numeric value in µg/mL, unit text excluded.

Worked cases, minimum biofilm eradication concentration (MBEC) given:
Query: Please tell me: minimum biofilm eradication concentration (MBEC) of CCCCCCCCCCN , system Pseudomonas aeruginosa (ATCC 15442) biofilms?
Result: 200

Query: Please tell me: minimum biofilm eradication concentration (MBEC) of CCCCCCCCN(C)CCCCCCCC , system Pseudomonas aeruginosa (ATCC 15442) biofilms?
Result: 800

Others:
Query: Please tell me: minimum biofilm eradication concentration (MBEC) of CCCCCCCCCCCCCCN , system Pseudomonas aeruginosa (ATCC 15442) biofilms?
Result: 25
